System: HCT-15 colon
measurement protocol: NCI-60 one-dose screen, 48 h (100 = growth as untreated, 0 = no growth, -100 = all killed)
reported conditions: 10 µM unless noted
The panel holds about 83,000 compounds, 20% with a hit somewhere; the sample as a whole holds those more often.
endpoint: growth (%)

compound	test result
CC/C(=C(/c1ccc(Cl)cc1)c1ccc(OCCN2CCCCC2)cc1)c1ccc(Cl)cc1	57.1
O=C(CNc1nc(-c2ccc(Cl)cc2)cs1)Nc1ccc(-c2nc3ccccc3s2)cc1	110
S=C(NCc1ccc2c(c1)OCO2)N1CCN(c2ncnc3c2oc2ccccc23)CC1	37.1
COc1ccc(C2CC(=O)c3c(O)c(OC)c(OC)c(OC)c3O2)cc1O (stereo not given)	9.19
CC(CCCC(=O)O)c1ccoc1 (stereo not given)	102

----------
# maps each entry to its growth
Test system: SK-OV-3 ovarian
measurement protocol: NCI-60 one-dose screen, 48 h (100 = growth as untreated, 0 = no growth, -100 = all killed)
reported conditions: 10 µM unless noted
The panel holds about 83,000 compounds, 20% with a hit somewhere; the sample as a whole holds those more often.

mol smiles	growth [%]
Cc1ccc(-c2cc3c(SCC(=O)Nc4cc(C(F)(F)F)ccc4Cl)nccn3n2)cc1	84.3
CNC(=O)CN1CCC(Oc2cc3c(Nc4cccc(Cl)c4F)ncnc3cc2OC)CC1	-22.4
Cc1cnc(Nc2ccc(OCCN3CCCC3)cc2)nc1Nc1cccc(S(=O)(=O)NC(C)(C)C)c1	-86.8
COc1cc2cc(NCc3ccc(Cl)cc3)nc(C)c2cc1OC	68
CCN(CC)CCN1C(=O)c2cccc3c(-c4ccc5c(c4)ncn5C4CCCCC4)ccc(c23)C1=O	21.2

----------
Test system: OVCAR-3 ovarian
measurement protocol: NCI-60 one-dose screen, 48 h (100 = growth as untreated, 0 = no growth, -100 = all killed)
reported conditions: 10 µM unless noted
This is part of a sample that, as a whole, favours compounds with a hit. Of some 83,000 tested, about 20% had one in any assay. Active and inactive are the calls of the source. The calls were made as follows: active = growth percent below 10; inactive = the rest.
# maps each entry to its growth
endpoint: growth

compound	experimental target	endpoint	test result
COc1ccc(C2OC(c3cc(-c4cc5ccccc5o4)nn3-c3ccccc3)=NN2C(C)=O)cc1 (configuration not stated)	OVCAR-3 ovarian	growth	95.3% (inactive)
Cc1oc2c(C(=O)N/N=C\c3ccc(O)cc3O)c[nH]c2c1C	OVCAR-3 ovarian	growth	-16% (active)
CC(C)(C)CC(C)(C)Nc1c(-c2c(O)c3ccccc3oc2=O)nc2c(Cl)cc(C(F)(F)F)cn12	OVCAR-3 ovarian	growth	112% (inactive)
C[C@@H](C[C@H](CCO)c1cc(C(F)(F)F)cc(C(F)(F)F)c1)c1ccc2ccccc2c1	OVCAR-3 ovarian	growth	81% (inactive)
COC(=O)c1ccc2c(C(=Nc3ccc(N(C)C(=O)CN4CCN(C)CC4)cc3)c3ccccc3)c(O)[nH]c2c1	OVCAR-3 ovarian	growth	91.3% (inactive)
NC(=O)N1N=C(c2ccc(Cl)cc2)CC1c1cn(-c2ccccc2)nc1-c1ccc(Cl)cc1 (configuration not stated)	OVCAR-3 ovarian	growth	78.1% (inactive)
c1cc[n+](Cc2c3ccccc3cc3c2ccc2ccccc23)cc1	OVCAR-3 ovarian	growth	36% (inactive)
Cc1cc([C@@H](C)Nc2ccccc2C(=O)O)c2nc(N3CCOCC3)cc(=O)n2c1	OVCAR-3 ovarian	growth	31.1% (inactive)
CCOc1cc2ncc(C#N)c(Nc3ccc(OCc4ccccn4)c(Cl)c3)c2cc1NC(=O)/C=C/CN(C)C	OVCAR-3 ovarian	growth	47.5% (inactive)
COCCOc1cnc2ccn([C@H](C)c3nnc4c(F)cc(-c5cnn(C)c5)cn34)c(=O)c2c1	OVCAR-3 ovarian	growth	102% (inactive)
CCc1cc2c(cc1N1CCC(N3CCOCC3)CC1)C(C)(C)c1[nH]c3cc(C#N)ccc3c1C2=O	OVCAR-3 ovarian	growth	4.44% (active)
CNC(=O)CN1CCC(Oc2cc3c(Nc4cccc(Cl)c4F)ncnc3cc2OC)CC1	OVCAR-3 ovarian	growth	46.3% (inactive)
Nc1c(C(=O)c2ccccc2)sc2nc(-c3cccs3)cc(-c3cccs3)c12	OVCAR-3 ovarian	growth	11.9% (inactive)
Cc1ccc(-[n+]2c3cc(N)c(C)cc3nc3cc(C)c(Nc4ccccc4)cc32)cc1	OVCAR-3 ovarian	growth	-97.4% (active)
CCc1nc2cc(/C=C/C(=O)NO)ccc2c(=O)n1CCc1ccc(F)cc1	OVCAR-3 ovarian	growth	-13.5% (active)
CCN(CCN(C)C)C(=O)CNCc1cc(C(N)=O)ccn1	OVCAR-3 ovarian	growth	119% (inactive)
CC(C)[C@@H](C)/C=C/[C@@H](C)[C@H]1CCC2=C3C=CC4=CC(=O)CC[C@]4(C)[C@H]3CC[C@@]21C	OVCAR-3 ovarian	growth	116% (inactive)
COc1ccc(COc2cc3oc(=O)c4cc(C(C)O)ccc4c3cc2OC)cc1 (configuration not stated)	OVCAR-3 ovarian	growth	58.6% (inactive)
Cc1cc(C)n(CC(=O)Nc2ccc(-c3nc4ccccc4s3)cc2)n1	OVCAR-3 ovarian	growth	101% (inactive)
CC1(C)NC(=O)c2[nH]c3c(Cl)c(Cl)ccc3c2C1C#N (configuration not stated)	OVCAR-3 ovarian	growth	82.4% (inactive)
CC(=O)Nc1cccc(-n2c(=O)n(C3CC3)c(=O)c3c(Nc4ccc(I)cc4F)n(C)c(=O)c(C)c32)c1	OVCAR-3 ovarian	growth	85.5% (inactive)
COc1cc(Nc2ncc(F)c(Nc3ccc4c(n3)N(COP(=O)(O)O)C(=O)C(C)(C)O4)n2)cc(OC)c1OC	OVCAR-3 ovarian	growth	43.4% (inactive)
O=C(Nc1cn[nH]c1-c1nc2ccc(CN3CCOCC3)cc2[nH]1)NC1CC1	OVCAR-3 ovarian	growth	11.7% (inactive)
Fc1ccc(NCc2cn(-c3ccccc3)nc2-c2ccc(OCc3ccccc3)cc2)cc1Cl	OVCAR-3 ovarian	growth	97.3% (inactive)
Cc1c(CN2CCN(C(=O)[C@H](C)O)CC2)sc2c(N3CCOCC3)nc(-c3cnc(N)nc3)nc12	OVCAR-3 ovarian	growth	3.12% (active)
CCCc1cc2cc(-n3nc(C)c4c3CC(C)(C)CC4=O)cc(NC3CCC(O)CC3)c2c(=O)[nH]1 (configuration not stated)	OVCAR-3 ovarian	growth	23.2% (inactive)
CCCC(=O)OCC1OC(n2cnc3c(=S)nc[nH]c32)C(OC(=O)CCC)C1OC(=O)CCC (configuration not stated)	OVCAR-3 ovarian	growth	22.7% (inactive)
Cn1nccc1Nc1nccc(-c2ccn([C@H](CO)c3ccc(Cl)c(F)c3)c(=O)c2)n1	OVCAR-3 ovarian	growth	115% (inactive)
C[C@H](NC(=O)c1c(N)nn2cccnc12)c1cc2cccc(C#Cc3cnn(C)c3)c2c(=O)n1-c1ccccc1	OVCAR-3 ovarian	growth	19.9% (inactive)
CCOC(=O)C1=C(C)NC(=O)NC1c1cc(=O)oc2ccc(C)cc12 (configuration not stated)	OVCAR-3 ovarian	growth	110% (inactive)
COc1ccc(Cl)c(Nc2nc3ccccc3nc2NS(=O)(=O)c2cccc(NC(=O)C(C)(C)N)c2)c1	OVCAR-3 ovarian	growth	36.9% (inactive)
C=C1C(=O)O[C@H]2[C@H]1CC/C(C=Nc1c(N)cc(C(F)(F)F)cc1C(F)(F)F)=C\CC[C@@]1(C)O[C@@H]21	OVCAR-3 ovarian	growth	-93.8% (active)
Cn1cc(-c2[nH]c3cc(NC(=O)[C@H](N)C4CCCCC4)cc4c3c2C=NNC4=O)cn1	OVCAR-3 ovarian	growth	-13% (active)
COc1cc(Nc2c(C#N)cnc3cc(OCCCN4CCN(C)CC4)c(OC)cc23)c(Cl)cc1Cl	OVCAR-3 ovarian	growth	77.9% (inactive)
CCN(CC)CCNC(=O)c1c(C)[nH]c(/C=C2\C(=O)Nc3ccc(F)cc32)c1C	OVCAR-3 ovarian	growth	67.9% (inactive)
N#Cc1c(-c2ccc(Cl)cc2)csc1NC(=O)Nc1cccc(C(F)(F)F)c1	OVCAR-3 ovarian	growth	-3.56% (active)
CC(=O)OC(C(=O)c1ccccc1)c1ccccc1 (configuration not stated)	OVCAR-3 ovarian	growth	121% (inactive)

----------
Tested on: LOX IMVI melanoma
measurement protocol: NCI-60 one-dose screen, 48 h (100 = growth as untreated, 0 = no growth, -100 = all killed)
reported conditions: 10 µM unless noted
About 83,000 compounds went through this panel and 20% of them were active in at least one assay; those are over-represented in the sample as a whole.
# maps each entry to its growth

compound	units	growth
CCN(CC)c1cc2oc3cc(N)cc(=N)c-3nc2cc1C	%	-0.53
O=C(Cc1ccc(/C=C/C(=O)c2ncc[nH]2)cc1)Nc1ccc(S(F)(F)(F)(F)F)cc1	%	-59
CN1CCN(c2ccc(OC(F)(F)F)c(Nc3ncc4c(n3)-c3c(c(C(N)=O)nn3CCO)CC4)c2)CC1	%	25.6
Cc1cc(C(O)CN(C)C)cc2c1ccc1cc(C(C)C)ccc12 (stereo not drawn)	%	-100
CC(C)(C)CC(C)(C)Nc1c(-c2c(O)c3ccccc3oc2=O)nc2c(Cl)cc(C(F)(F)F)cn12	%	98.1
O=C1CC(c2ccc(Cl)cc2)c2ncn(-c3cccc(Cl)c3)c2N1 (stereo not drawn)	%	47.5
NC1=Nc2cc(OCCCN3Cc4ccccc4C3)c(OCC3CC3)cc2C12CCCC2	%	8.85
CCCCCCC1(/C=N/NC(N)=O)NC(=O)NC1=O (stereo not drawn)	%	97.4
COc1ccc(-c2nc(N)ncc2Oc2ccccc2OC)c(O)c1	%	34
CNS(=O)(=O)Nc1nccc(Cc2c(C)c3ccc(Oc4ncccn4)cc3oc2=O)c1F	%	25.6
O=C(NC[C@H](O)CO)c1ccncc1Nc1ccc(I)cc1F	%	25.2
COc1cc2nc(Nc3cccc(Cl)c3)nc(N)c2cc1OC	%	59.8
O=C1C=CC2(NN=C(c3ccccc3)N2c2ccccc2)c2cccc(O)c21 (stereo not drawn)	%	-5.86
CN1CCN(Cc2ccc(NC(=O)c3[nH]ncc3Nc3ncnc4sc5c(c34)CCCC5)cc2)CC1	%	-91.7
CCN1CCN(Cc2ccc(NC(=O)Nc3nc(-c4cc(OC)c(OC)c(OC)c4)cs3)cc2C(F)(F)F)CC1	%	-82.7
COc1ccc2c(CCCCC(c3ccccc3)c3ccccc3)c3[n+](cc2c1OC)CCc1cc2c(cc1-3)OCO2	%	-100
CN1CC[C@@H](c2c(O)cc(O)c3c(=O)cc(-c4ccccc4Cl)oc23)[C@@H]1CO	%	6.25
COc1c(C(NC(=O)c2ccccc2)c2sccc2C)cc(Cl)c2cccnc12 (stereo not drawn)	%	98.1
CCNCCNc1cc(-c2ccc(Cl)c(Cl)c2)c(C#N)c2nc3ccccc3n12	%	-93.4
COc1ccc(C2OC(c3cc(-c4cc5ccccc5o4)nn3-c3ccccc3)=NN2C(C)=O)cc1 (stereo not drawn)	%	85.5
C#Cc1cccc(Nc2ncnc3cc(OC)c(OCCCCCCC(=O)NO)cc23)c1	%	-89.3
Cc1c(Cn2c(C)nc3c(C(=O)O)cc(N4CCOCC4)cc32)cccc1C(F)(F)F	%	101
O=c1nc2c(-c3nc4ccccc4s3)n[nH]n2c2sc3c(c12)CCCC3	%	96.9
CS(=O)(=O)N1CCN(Cc2cc3nc(-c4cccc5[nH]ncc45)nc(N4CCOCC4)c3s2)CC1	%	15.5
COC(=O)[C@]12CC[C@@H](C)[C@H](C)[C@@H]1C1=CC[C@@H]3[C@@]4(C)C(C#N)=CC(C)=C4CC[C@@]3(C)[C@]1(C)CC2	%	92.1
CN(C)C/C=C/C(=O)Nc1cc2c(Nc3ccc(F)c(Cl)c3)ncnc2cc1O[C@H]1CCOC1	%	-73.5
COC(=O)CC[C@@H](C)[C@H]1CC[C@H]2C3CC[C@@H]4C[C@@H]5CC[C@]4(C)[C@@]3(O5)[C@H](Br)[C@@H](Br)[C@]12C (stereo partly drawn)	%	97.1
Cc1[nH]n(C(N)=S)c(=O)c1N=Nc1ccc(S(=O)(=O)Nc2ccncn2)cc1	%	87.4
O=C1NC(=O)C(c2cnc3ccccn23)=C1c1cn2c3c(cc(F)cc13)CN(C(=O)N1CCCCC1)CC2	%	27.5
CC(=O)Oc1ccccc1C(=O)N=C1[Se]CCN1C(=O)c1ccccc1OC(C)=O	%	-49
CC(C)CC(=O)Nc1n[nH]c2c1CN(C(=O)C1CCN(C)CC1)C2(C)C	%	9.19
CCc1nc2ccc(Cc3ccc(C(=O)NO)cc3)cc2c(=O)n1CCc1ccccc1	%	-76.2
CCN1CCN(c2nc(C)cc(N(CCNc3ccnc4cc(Cl)ccc34)Cc3ccc4c(c3)OCO4)n2)CC1	%	-74.5
CCN1CCN(Cc2ccc(Cc3ncc(F)c(-c4cc(F)c5nc(C)n(C(C)C)c5c4)n3)nc2)CC1	%	-80.4
Cn1cnc2c(F)c(Nc3ccc(Br)cc3F)c(C(=O)NOCCO)cc21	%	29.6
CCc1ccc(/C=C/c2ccc(O)c3ncccc23)[n+](C)c1	%	55.6
CCNC(=O)C#Cc1ccc2c(C(=Nc3ccc(CN(C)C)cc3)c3ccccc3)c(O)[nH]c2c1	%	-75.7
CCc1nc2cc(/C=C/C(=O)NO)ccc2c(=O)n1CCc1ccc(OC)cc1	%	-21.8

The reported measurements were obtained from PubChem BioAssay (NCI).
